Taken from patent US11964971B2.

system: MDR1; assay: in vitro; conditions: dog, MDCK-MDR1, pH 7.4, MDCK-MDR1: Papp A-B (10^−6, cm/s)
Below: a set of entries, each annotated with reported Papp A→B at 120 min, 5 μM.
readout-type: Papp A→B at 120 min, 5 μM (×10⁻⁶ cm/s)

compound="CN(c1cnc(-c2ccc(-c3cc[nH]c(=O)c3)cc2O)cn1)[C@@H]1CC2CC[C@H](N2)[C@@H]1F (single isomer, unassigned) [Compound 76E1]" system_tested=MDR1 reading_unit="×10⁻⁶ cm/s" obs_value=0.29
compound="COc1cc(-c2cc(O)c(-c3cnc(N(C)[C@@H]4CC5CC[C@H](N5)[C@@H]4F)cn3)cc2F)cc(F)n1 (single isomer, unassigned) [Compound 31E1]" system_tested=MDR1 reading_unit="×10⁻⁶ cm/s" obs_value=0.48
compound="CN(c1cnc(-c2ccc(C3=CCOC3)cc2O)cn1)[C@@H]1CC2CC[C@H](N2)[C@@H]1F (single isomer, unassigned) [Compound 84E1]" system_tested=MDR1 reading_unit="×10⁻⁶ cm/s" obs_value=3.01

###

Below: a set of entries, each annotated with reported MDCK-MDR1: % Recov B-A (%).
test system: MDR1-MDCK cell monolayers; settings: dog, MDCK-MDR1, 120 min, 5 μM, pH 7.4
readout-type: MDCK-MDR1: % Recov B-A (%)

compound="CNC(=O)/C=C/c1cc(O)c(-c2cnc(N(C)[C@H]3C[C@@H]4CCC(N4)[C@H]3F)cn2)cc1F (single isomer, unassigned)" reading_unit=% obs_value=89
compound="COc1cc(-c2ccc(-c3cnc(N(C)[C@H]4C[C@@H]5CCC(N5)[C@H]4F)cn3)c(O)c2)cnn1 (single isomer, unassigned)" reading_unit=% obs_value=67
compound="CN(c1cnc(-c2ccc(-c3ccn(C)c(=O)c3)cc2O)cn1)[C@@H]1CC2CCC[C@H](N2)[C@@H]1F (single isomer, unassigned)" reading_unit=% obs_value=81

###

system: MDR1-MDCK cell monolayers; conditions: dog, MDCK-MDR1, 120 min, 5 μM, pH 7.4
Below: a set of entries, each annotated with reported MDCK-MDR1: % Recov A-B (%).
readout-type: MDCK-MDR1: % Recov A-B (%)

molecule="CN(c1cnc(-c2ccc(-c3ccn(CF)c(=O)c3)cc2O)cn1)[C@H]1C[C@@H]2CCC(N2)[C@H]1F (single isomer, unassigned)" system_tested="MDR1-MDCK cell monolayers" readout_type="MDCK-MDR1: % Recov A-B (%)" obs_value=77
molecule="Cn1cnc(-c2ccc(-c3cnc(N(C4CC4)[C@H]4C[C@@H]5CCC(N5)[C@H]4F)cn3)c(O)c2)cc1=O (single isomer, unassigned)" system_tested="MDR1-MDCK cell monolayers" readout_type="MDCK-MDR1: % Recov A-B (%)" obs_value=71
molecule="COc1cc(-c2ccc(-c3cnc(N(C)[C@@H]4CC5N[C@H](C4)CC5(F)F)cn3)c(O)c2)cnn1 (single isomer, unassigned)" system_tested="MDR1-MDCK cell monolayers" readout_type="MDCK-MDR1: % Recov A-B (%)" obs_value=63
molecule="CN(c1cnc(-c2cc3oc(C(=O)N4CCC4)cc3cc2O)cn1)[C@H]1C[C@@H]2CCC(N2)[C@H]1F (single isomer, unassigned)" system_tested="MDR1-MDCK cell monolayers" readout_type="MDCK-MDR1: % Recov A-B (%)" obs_value=75
molecule="CNC(=O)/C=C/c1cc(O)c(-c2cnc(N(C)[C@H]3C[C@@H]4CCC(N4)[C@H]3F)cn2)cc1F (single isomer, unassigned)" system_tested="MDR1-MDCK cell monolayers" readout_type="MDCK-MDR1: % Recov A-B (%)" obs_value=89
molecule="CN(c1cnc(-c2ccc(-c3cnn(C)c3)cc2O)cn1)[C@H]1C[C@@H]2CCC(N2)[C@H]1F (single isomer, unassigned)" system_tested="MDR1-MDCK cell monolayers" readout_type="MDCK-MDR1: % Recov A-B (%)" obs_value=54
molecule="CN(c1cnc(-c2cc(F)c(-n3ccnn3)cc2O)cn1)[C@@H]1CC2CC[C@H](N2)[C@@H]1F (single isomer, unassigned)" system_tested="MDR1-MDCK cell monolayers" readout_type="MDCK-MDR1: % Recov A-B (%)" obs_value=83
molecule="CN(c1cnc(-c2cc(F)c(-c3cc(=O)n(C)cn3)cc2O)cn1)[C@H]1C[C@@H]2CCC(N2)[C@H]1F (single isomer, unassigned)" system_tested="MDR1-MDCK cell monolayers" readout_type="MDCK-MDR1: % Recov A-B (%)" obs_value=91
molecule="Cc1cc(-c2ccc(-c3cnc(N(C)[C@@H]4CC5CC[C@H](N5)[C@@H]4F)cn3)c(O)c2)cc(=O)[nH]1 (single isomer, unassigned)" system_tested="MDR1-MDCK cell monolayers" readout_type="MDCK-MDR1: % Recov A-B (%)" obs_value=64
molecule="CN(c1cnc(-c2ccc(-c3cc[nH]c(=O)c3)cc2O)cn1)[C@H]1C[C@@H]2COCC(N2)[C@H]1F (single isomer, unassigned)" system_tested="MDR1-MDCK cell monolayers" readout_type="MDCK-MDR1: % Recov A-B (%)" obs_value=45
molecule="Cn1cc(-c2cc(O)c(-c3cnc(N(C4CC4)[C@H]4C[C@@H]5CCC(N5)[C@H]4F)cn3)cc2F)cn1 (single isomer, unassigned)" system_tested="MDR1-MDCK cell monolayers" readout_type="MDCK-MDR1: % Recov A-B (%)" obs_value=32
molecule="CN(c1cnc(-c2ccc(-c3cnn(C)c3)cc2O)cn1)[C@@H]1CC2COC[C@H](N2)[C@@H]1F (single isomer, unassigned)" system_tested="MDR1-MDCK cell monolayers" readout_type="MDCK-MDR1: % Recov A-B (%)" obs_value=50
molecule="CN(c1cnc(-c2cc(F)c(-c3ccn(CF)c(=O)c3)cc2O)cn1)[C@H]1C[C@@H]2CCC(N2)[C@H]1F (single isomer, unassigned)" system_tested="MDR1-MDCK cell monolayers" readout_type="MDCK-MDR1: % Recov A-B (%)" obs_value=86
molecule="CN(c1cnc(-c2ccc(-c3cn[nH]c3)cc2O)cn1)[C@H]1CC2N[C@@H](C1)CC2(F)F (single isomer, unassigned)" system_tested="MDR1-MDCK cell monolayers" readout_type="MDCK-MDR1: % Recov A-B (%)" obs_value=60
molecule="CN(c1cnc(-c2ccc(-c3cnn(C)c3)cc2O)cn1)[C@@H]1C[C@H]2CCC(N2)[C@@H]1F (single isomer, unassigned)" system_tested="MDR1-MDCK cell monolayers" readout_type="MDCK-MDR1: % Recov A-B (%)" obs_value=56
molecule="CN(c1cnc(-c2cc(F)c(-c3cn[nH]c3)cc2O)cn1)[C@@H]1CC2N[C@H](C1)CC2(F)F (single isomer, unassigned)" system_tested="MDR1-MDCK cell monolayers" readout_type="MDCK-MDR1: % Recov A-B (%)" obs_value=54
molecule=COc1cc(-c2ccc(-c3cnc(N(C)[C@H]4C[C@]5(C)CCC[C@@](C)(N5)[C@H]4F)cn3)c(O)c2)cnn1 system_tested="MDR1-MDCK cell monolayers" readout_type="MDCK-MDR1: % Recov A-B (%)" obs_value=37
molecule="Oc1cc(-n2ccnn2)c(F)cc1-c1cnc(N(C2CC2)[C@H]2C[C@@H]3CCC(N3)[C@H]2F)cn1 (single isomer, unassigned)" system_tested="MDR1-MDCK cell monolayers" readout_type="MDCK-MDR1: % Recov A-B (%)" obs_value=69
molecule="CNC(=O)c1cc(O)c(-c2cnc(N(C)[C@@H]3CC4CC[C@H](N4)[C@@H]3F)cn2)cc1F (single isomer, unassigned)" system_tested="MDR1-MDCK cell monolayers" readout_type="MDCK-MDR1: % Recov A-B (%)" obs_value=86
molecule="COc1cc(-c2ccc(-c3cnc(N(C4CC4)[C@@H]4CC5CC[C@H](N5)[C@@H]4F)cn3)c(O)c2)ccn1 (single isomer, unassigned)" system_tested="MDR1-MDCK cell monolayers" readout_type="MDCK-MDR1: % Recov A-B (%)" obs_value=8
molecule="COc1cc(-c2ccc(-c3cnc(N(C)[C@H]4C[C@@H]5CCC(N5)[C@H]4F)cn3)c(O)c2)cnn1 (single isomer, unassigned)" system_tested="MDR1-MDCK cell monolayers" readout_type="MDCK-MDR1: % Recov A-B (%)" obs_value=41
molecule="CN(c1cnc(-c2ccc(-c3cn[nH]c3)cc2O)cn1)[C@H]1C[C@]2(C)CCC(N2)[C@H]1F (single isomer, unassigned)" system_tested="MDR1-MDCK cell monolayers" readout_type="MDCK-MDR1: % Recov A-B (%)" obs_value=66
